- target system: TRKA-wt (Homo sapiens, UniProt P04629)
- Sequence (P04629 510-781 limits assumed): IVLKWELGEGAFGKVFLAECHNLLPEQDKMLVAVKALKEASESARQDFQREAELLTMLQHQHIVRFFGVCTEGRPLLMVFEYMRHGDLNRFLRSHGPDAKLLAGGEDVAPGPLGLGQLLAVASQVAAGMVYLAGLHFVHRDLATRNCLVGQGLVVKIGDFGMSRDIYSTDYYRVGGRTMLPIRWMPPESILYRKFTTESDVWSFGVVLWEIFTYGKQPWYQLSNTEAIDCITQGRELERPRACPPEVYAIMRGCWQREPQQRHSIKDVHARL
pKi: −log10 of the molar value.
measured attribute: pKi

>>> reported("CCn1ncc2c1-c1cnc(N)c(c1)O[C@H](C)c1cc(F)ccc1-c1cc(F)nn1C2")
"6.30 to 7.30"
>>> reported("C[C@H]1Oc2cc(cnc2N)-c2c(C3CCC3)nnn2Cc2nn(C)nc2-c2ccc(F)cc21")
"< 6.30"
>>> reported("CCn1ncc2c1-c1cnc(N)c(c1)O[C@H](C)c1cc(F)ccc1-c1cc(OC)nn1C2")
"6.30 to 7.30"
>>> reported("C[C@H]1Oc2cc(cnc2N)-c2c(cnn2C(F)F)Cn2nccc2-c2ccc(F)cc21")
"< 6.30"

Quick check: pKi on TRKA-wt (Homo sapiens, UniProt P04629), item C[C@H]1Oc2cc(cnc2N)-c2c(C#N)ncn2Cc2ncccc2-c2ccc(F)cc21 ? < 6.30

Value wanted: pKi (TRKA-wt (Homo sapiens, UniProt P04629)) of entry C[C@H]1Oc2cc(cnc2N)-c2c(cnn2C2CCC2)Cn2ncc(C#N)c2-c2ccc(F)cc21 < 6.30

Checklist item: pKi tested on TRKA-wt (Homo sapiens, UniProt P04629), entry CCc1noc2c1-c1cnc(N)c(c1)O[C@H](C)c1cc(F)ccc1-c1ccnn1C2 , value? 6.30 to 7.30

# get_value(readout= pKi, system= TRKA-wt (Homo sapiens, UniProt P04629)) for Cc1cc2n(n1)Cc1cnn(CCF)c1-c1cnc(N)c(c1)O[C@H](C)c1cc(F)ccc1-2 < 6.30
